From: patent US20250000991A1

Target: T1, recombinant HIS-tagged human nectin-4 (Acro Biosystems Cat. No. NE4-H52H3) (human, UniProt Q96NY8 32-349)
T1 construct: Bought protein; not shown: HIS tag
T1 sequence: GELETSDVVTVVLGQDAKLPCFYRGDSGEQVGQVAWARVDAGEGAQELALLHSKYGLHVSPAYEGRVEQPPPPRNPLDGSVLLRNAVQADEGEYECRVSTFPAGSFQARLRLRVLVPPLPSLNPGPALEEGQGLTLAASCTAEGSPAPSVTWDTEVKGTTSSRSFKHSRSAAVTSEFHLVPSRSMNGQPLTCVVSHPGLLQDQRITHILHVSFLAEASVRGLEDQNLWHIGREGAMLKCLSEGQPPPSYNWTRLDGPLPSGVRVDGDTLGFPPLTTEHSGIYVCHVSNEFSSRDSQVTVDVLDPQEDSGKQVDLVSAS
Test: SPR Biacore 8K+, ADC captured via anti-human Fc, nectin-4 analyte, 37 C;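 also: Nectin-4 injected over captured ADC at 0 to 600 nM for 2 min association, then 10 min dissociation, with a reference flow cell lacking ADC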
quantity: pKd
pKd is a log-scale quantity: -log10 of the concentration expressed in molar.

Query: In one line, give reported pKd of the entry Ab8 ADC (Ab8 conjugated as in Formula XI, DAR of 8) (antibody, human IgG1, lambda, L234A L235A, V domains shown, camptothecin analog linker-payload of Formula XI on cysteine thiols after full reduction, DAR of 8 per antibody; positions not given, Antibody-drug conjugate of Ab8; also called Ab8 (ADC column)) VH: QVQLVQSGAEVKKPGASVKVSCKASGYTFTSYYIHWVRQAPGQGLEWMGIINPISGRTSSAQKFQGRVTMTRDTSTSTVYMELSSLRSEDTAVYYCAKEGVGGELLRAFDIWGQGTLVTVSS VL: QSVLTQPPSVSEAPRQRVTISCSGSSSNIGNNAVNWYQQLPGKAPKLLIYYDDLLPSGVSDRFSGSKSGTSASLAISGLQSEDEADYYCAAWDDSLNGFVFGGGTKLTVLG .
Response: 7.31
